- test target: human MC4R (Homo sapiens, UniProt P32245)
- Construct: expressed in transfected cells; host or cells: HEK293/MC4R/CRE-GFP
- Sequence (P32245 whole entry): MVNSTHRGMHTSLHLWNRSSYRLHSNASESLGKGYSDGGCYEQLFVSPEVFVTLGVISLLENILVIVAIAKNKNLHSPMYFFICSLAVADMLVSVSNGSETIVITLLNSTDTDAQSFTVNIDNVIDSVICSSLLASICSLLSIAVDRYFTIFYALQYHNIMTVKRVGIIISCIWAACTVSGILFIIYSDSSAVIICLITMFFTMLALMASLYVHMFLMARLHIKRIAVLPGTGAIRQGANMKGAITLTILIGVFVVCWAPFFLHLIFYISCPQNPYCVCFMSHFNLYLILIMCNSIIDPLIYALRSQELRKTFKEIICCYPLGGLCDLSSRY
- test protocol: cAMP accumulation assay (HTRF), antagonist activity at MC4R
- Format: cell-based
- assay conditions: dose-response fit, MC4R
Structures can show the parent of a compound that is named as a salt. Positions of bridges follow the written chain, without caps; N, C: chain ends. Non-standard residues stand in square brackets, D forms with d. Residues, ends and D or L forms follow the SMILES beside them. d2Nal = N[C@H](Cc1ccc2ccccc2c1)C(=O)O; Nle = CCCC[C@H](N)C(=O)O
metric: Hill Coefficient

CCCC[C@H](NC(C)=O)C(=O)N[C@H]1CC(=O)NCCCC[C@@H](C(=O)N2CCC[C@@H]2C(=O)N[C@@H](C(N)=O)C(C)C)NC(=O)[C@H](Cc2c[nH]c3ccccc23)NC(=O)[C@H](CCCNC(=N)N)NC(=O)[C@@H](Cc2ccc3ccccc3c2)NC(=O)[C@@H]2CCCN2C1=O [TCMCB02] (Ac-[Nle]DP[d2Nal]RWK[dP][dV]-NH2; lactam 2-7); 0.69
CCCC[C@@H]1NC(=O)[C@@H](NC(C)=O)CSSC[C@@H](C(N)=O)NC(=O)CNC(=O)[C@H](Cc2c[nH]c3ccccc23)NC(=O)[C@H](CCCNC(=N)N)NC(=O)[C@@H](Cc2ccc3ccccc3c2)NC(=O)[C@H](Cc2c[nH]cn2)NC(=O)[C@H](CCCNC(=N)N)NC1=O [HS024(TFA), reference compound] (Ac-C[Nle]RH[d2Nal]RWGC-NH2; disulfide 1-9 (inferred); N-terminus and C-terminus assumed); 0.61

* * *

- test target: human MC4R (Homo sapiens, UniProt P32245)
- Construct: expressed in transfected cells; host or cells: HEK293/MC4R/CRE-GFP
- test protocol: cAMP accumulation assay (HTRF), antagonist activity at MC4R
- Assay type: cell-based
- assay conditions: dose-response fit, MC4R
Positions of bridges follow the written chain, without caps; N, C: chain ends. No end group written: not given here.
Entries whose Hill Coefficient is below 0.7 take 1.0; entries at or above 0.7 take 0.0.

VDPWRWKVP [Peptide C9]; 1.0
Ac-Leu-c(Asp-Pro-Trp-Arg-Trp-Lys)-Val-Pro-NH2 (Ac-LDPWRWKVP-NH2; lactam 2-7; SMILES CC(=O)N[C@@H](CC(C)C)C(=O)N[C@H]1CC(=O)NCCCC[C@@H](C(=O)N[C@H](C(=O)N2CCC[C@H]2C(N)=O)C(C)C)NC(=O)[C@H](Cc2c[nH]c3ccccc23)NC(=O)[C@H](CCCNC(=N)N)NC(=O)[C@H](Cc2c[nH]c3ccccc23)NC(=O)[C@@H]2CCCN2C1=O) [Peptide C2]; 0.0
LPWRWVP [Peptide C4]; 1.0
LPFFRWVP [Peptide B4]; 0.0

* * *

# Lookup of reported Hill Coefficient keyed by entry
- test target: human MC3R (Homo sapiens)
- Construct: expressed in transfected cells; host or cells: HEK293/CRE-luc/MC3R
- Sequence (P41968 whole entry): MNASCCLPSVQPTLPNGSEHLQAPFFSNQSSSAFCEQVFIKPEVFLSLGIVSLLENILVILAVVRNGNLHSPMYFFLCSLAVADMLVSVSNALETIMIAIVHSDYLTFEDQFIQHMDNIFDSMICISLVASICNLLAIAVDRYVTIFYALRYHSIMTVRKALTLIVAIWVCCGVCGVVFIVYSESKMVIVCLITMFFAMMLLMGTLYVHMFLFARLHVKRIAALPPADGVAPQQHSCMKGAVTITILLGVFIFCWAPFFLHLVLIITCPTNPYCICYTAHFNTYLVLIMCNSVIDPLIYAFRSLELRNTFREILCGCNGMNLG
- test protocol: cAMP accumulation assay (HTRF), antagonist activity at MC3R
- Format: cell-based
- assay conditions: dose-response fit, MC3R
Positions of bridges follow the written chain, without caps; N, C: chain ends. Non-standard residues stand in square brackets, D forms with d. Residues, ends and D or L forms follow the SMILES beside them. d2Nal = N[C@H](Cc1ccc2ccccc2c1)C(=O)O; Hyp = O=C(O)[C@@H]1C[C@@H](O)CN1; Nle = CCCC[C@H](N)C(=O)O
metric: Hill Coefficient

CCCC[C@H](NC(C)=O)C(=O)N[C@H]1CC(=O)NCCCC[C@@H](C(=O)N[C@@H](C(=O)N2CCC[C@@H]2C(N)=O)C(C)C)NC(=O)[C@@H]2CCCN2C(=O)[C@H](Cc2c[nH]c3ccccc23)NC(=O)[C@H](CCCNC(=N)N)NC(=O)[C@@H](Cc2ccc3ccccc3c2)NC(=O)[C@@H]2C[C@@H](O)CN2C1=O [Peptide D4] (Ac-[Nle]D[Hyp][d2Nal]RWPK[dV][dP]-NH2; lactam 2-8); 0.65
CCCC[C@H](NC(C)=O)C(=O)N[C@H]1CC(=O)NCCCC[C@@H](C(=O)N[C@@H](C(=O)N2CCC[C@@H]2C(N)=O)C(C)C)NC(=O)[C@H](Cc2c[nH]c3ccccc23)NC(=O)[C@H](CCCNC(=N)N)NC(=O)[C@@H](Cc2ccc3ccccc3c2)NC(=O)[C@H](Cc2c[nH]cn2)NC(=O)[C@@H]2CCCN2C1=O [Peptide D1] (Ac-[Nle]DPH[d2Nal]RWK[dV][dP]-NH2; lactam 2-8); 0.73
CCCC[C@H](NC(C)=O)C(=O)N[C@H]1CC(=O)NCCCC[C@@H](C(=O)N[C@@H](C(=O)N2CCC[C@@H]2C(N)=O)C(C)C)NC(=O)[C@H](Cc2c[nH]c3ccccc23)NC(=O)[C@H](CCCNC(=N)N)NC(=O)[C@@H](Cc2ccc3ccccc3c2)NC(=O)[C@@H]2C[C@@H](O)CN2C1=O [Peptide D3] (Ac-[Nle]D[Hyp][d2Nal]RWK[dV][dP]-NH2; lactam 2-7); 0.98

* * *

- test target: human MC3R (Homo sapiens)
- Construct: expressed in transfected cells; host or cells: HEK293/CRE-luc/MC3R
- test protocol: cAMP accumulation assay (HTRF), antagonist activity at MC3R
- Format: cell-based
- assay conditions: dose-response fit, MC3R
Where a name gives a salt, the structure may show the parent alone. Positions of bridges follow the written chain, without caps; N, C: chain ends. Non-standard residues stand in square brackets, D forms with d. Residues, ends and D or L forms follow the SMILES beside them. d2Nal = N[C@H](Cc1ccc2ccccc2c1)C(=O)O; Nle = CCCC[C@H](N)C(=O)O
We begin with a simple list: items and their reported Hill Coefficient.
metric: Hill Coefficient

CCCC[C@H](NC(C)=O)C(=O)N[C@H]1CC(=O)NCCCC[C@@H](C(=O)N2CCC[C@@H]2C(=O)N[C@@H](C(N)=O)C(C)C)NC(=O)[C@H](Cc2c[nH]c3ccccc23)NC(=O)[C@H](CCCNC(=N)N)NC(=O)[C@@H](Cc2ccc3ccccc3c2)NC(=O)[C@@H]2CCCN2C1=O [TCMCB02] (Ac-[Nle]DP[d2Nal]RWK[dP][dV]-NH2; lactam 2-7); 1.03
CCCC[C@@H]1NC(=O)[C@@H](NC(C)=O)CSSC[C@@H](C(N)=O)NC(=O)CNC(=O)[C@H](Cc2c[nH]c3ccccc23)NC(=O)[C@H](CCCNC(=N)N)NC(=O)[C@@H](Cc2ccc3ccccc3c2)NC(=O)[C@H](Cc2c[nH]cn2)NC(=O)[C@H](CCCNC(=N)N)NC1=O [HS024(TFA), reference compound] (Ac-C[Nle]RH[d2Nal]RWGC-NH2; disulfide 1-9 (inferred); N-terminus and C-terminus assumed); 0.93

* * *

- test target: human MC3R (Homo sapiens)
- Construct: expressed in transfected cells; host or cells: HEK293/CRE-luc/MC3R
- test protocol: cAMP accumulation assay (HTRF), antagonist activity at MC3R
- Type: cell-based
- assay conditions: dose-response fit, MC3R
Positions of bridges follow the written chain, without caps; N, C: chain ends. Non-standard residues stand in square brackets, D forms with d. No end group written: not given here. d2Nal = N[C@H](Cc1ccc2ccccc2c1)C(=O)O; Nle = CCCC[C@H](N)C(=O)O
Entries whose Top (%) is below 4% take Y; entries at or above 4% take N.

Ac-Nle-c(Asp-Pro-Trp-Arg-Trp-Lys)-Dval-Dpro-NH2 (Ac-[Nle]DPWRWK[dV][dP]-NH2; lactam 2-7; SMILES CCCC[C@H](NC(C)=O)C(=O)N[C@H]1CC(=O)NCCCC[C@@H](C(=O)N[C@@H](C(=O)N2CCC[C@@H]2C(N)=O)C(C)C)NC(=O)[C@H](Cc2c[nH]c3ccccc23)NC(=O)[C@H](CCCNC(=N)N)NC(=O)[C@H](Cc2c[nH]c3ccccc23)NC(=O)[C@@H]2CCCN2C1=O) [Peptide C1]; N
VPWRWVP [Peptide C6]; N
Ac-Nle-c(Asp-His-Dnal(2′)-Arg-Trp-Pro-Lys)-Dval-Dpro-NH2 (Ac-[Nle]DH[d2Nal]RWPK[dV][dP]-NH2; lactam 2-8; SMILES CCCC[C@H](NC(C)=O)C(=O)N[C@H]1CC(=O)NCCCC[C@@H](C(=O)N[C@@H](C(=O)N2CCC[C@@H]2C(N)=O)C(C)C)NC(=O)[C@@H]2CCCN2C(=O)[C@H](Cc2c[nH]c3ccccc23)NC(=O)[C@H](CCCNC(=N)N)NC(=O)[C@@H](Cc2ccc3ccccc3c2)NC(=O)[C@H](Cc2c[nH]cn2)NC1=O) [Peptide D2]; N
VPFFRWVP [Peptide B6]; N
LPFFRWVP [Peptide B4]; N
Leu-c(Asp-Pro-Trp-Arg-Trp-Lys)-Val-Pro (LDPWRWKVP; lactam 2-7) [Peptide C3]; Y
IDPWRWKVP [Peptide C8]; Y
Ac-Nle-Pro-Dnal(2′)-Arg-Trp-Dval-Dpro-NH2 (Ac-[Nle]P[d2Nal]RW[dV][dP]-NH2; SMILES CCCC[C@H](NC(C)=O)C(=O)N1CCC[C@H]1C(=O)N[C@H](Cc1ccc2ccccc2c1)C(=O)N[C@@H](CCCNC(=N)N)C(=O)N[C@@H](Cc1c[nH]c2ccccc12)C(=O)N[C@@H](C(=O)N1CCC[C@@H]1C(N)=O)C(C)C) [Peptide A2]; N
